As shown below, each of these compounds has a reported Preemergence herbicidal rating SETVI value.
Test system: SETVI (Foxtail, Green)
Assay Notes: Preemergence herbicidal evaluation
Format: in vivo, Setaria viridis
Measurement Context: rate 0.2500 kg/ha; rated 4-5 weeks after treatment; rating scale 0-9
Quantity Name: Preemergence herbicidal rating SETVI

| Compound String | Recorded Measurement |
| --- | --- |
| Cn1c(C(F)(F)F)cc(=O)n(-c2cc(N=C3SCC(=O)N3Cc3ccc(S(N)(=O)=O)cc3)c(Cl)cc2F)c1=O | 7.0 |
| COCCN1C(=O)CSC1=Nc1cc(-n2c(=O)cc(C(F)(F)F)n(C)c2=O)c(F)cc1Cl | 0.0 |
| CSCCN1C(=O)CSC1=Nc1cc(-n2c(=O)cc(C(F)(F)F)n(C)c2=O)c(F)cc1Cl | 1.0 |
| Cc1cccc(CN2C(=O)CSC2=Nc2cc(-n3c(=O)cc(C(F)(F)F)n(C)c3=O)c(F)cc2Cl)c1 | 9.0 |
| Cn1c(C(F)(F)F)cc(=O)n(-c2cc(N=C3SCC(=O)N3Cc3ccc(Br)cc3)c(Cl)cc2F)c1=O | 5.0 |
| COc1cccc(CN2C(=O)CSC2=Nc2cc(-n3c(=O)cc(C(F)(F)F)n(C)c3=O)c(F)cc2Cl)c1 | 2.0 |

* * *

Measured GALAP herbicidal rating values are reported for all entries that follow.
Tested on: GALAP (Galium)
Assay Notes: Postemergence herbicidal evaluation
Format: in vivo, Galium aparine
Measurement Context: postemergence, rate 0.0315 kg/ha

| Molecule | GALAP herbicidal rating |
| --- | --- |
| CN1C(=O)C(CC(N)=O)SC1=Nc1cc(-n2c(=O)cc(C(F)(F)F)n(C)c2=O)c(F)cc1Cl (stereo not shown) | 3.0 |
| Cn1c(C(F)(F)F)cc(=O)n(-c2cc(N=C3SCC(=O)N3[C@H](Cc3ccccc3)C(=O)O)c(Cl)cc2F)c1=O | 1.0 |
| CCOC(=O)CN1C(=O)C(CC(=O)OCCF)SC1=Nc1cc(-n2c(=O)cc(C(F)(F)F)n(C)c2=O)c(F)cc1Cl (stereo not shown) | 9.0 |
| CCOC(=O)C(c1ccc(Cl)cc1)N1C(=O)CSC1=Nc1cc(-n2c(=O)cc(C(F)(F)F)n(C)c2=O)c(F)cc1Cl (racemic) | 2.0 |

* * *

Recorded measurements of Preemergence herbicidal rating ORYSAT, one per entry
Test system: ORYSAT (Rice, Tebonnet)
Assay Notes: Preemergence herbicidal evaluation
Format: in vivo, Oryza sativa, (L.) Tebonnet
Measurement Context: rate 0.2500 kg/ha; rated 4-5 weeks after treatment; rating scale 0-9
Quantity Name: Preemergence herbicidal rating ORYSAT

| Molecule | Study Target | Quantity Name | Recorded Measurement |
| --- | --- | --- | --- |
| COC(=O)CSCCN1C(=O)CSC1=Nc1cc(-n2c(=O)cc(C(F)(F)F)n(C)c2=O)c(F)cc1Cl [Compound 158] | ORYSAT (Rice, Tebonnet) | Preemergence herbicidal rating ORYSAT | 8.0 |
| COc1ccc(CN2C(=O)CSC2=Nc2cc(-n3c(=O)cc(C(F)(F)F)n(C)c3=O)c(F)cc2Cl)cc1OC [Compound 134] | ORYSAT (Rice, Tebonnet) | Preemergence herbicidal rating ORYSAT | 0.0 |
| Cc1cccc(CN2C(=O)CSC2=Nc2cc(-n3c(=O)cc(C(F)(F)F)n(C)c3=O)c(F)cc2Cl)c1 [Compound 130] | ORYSAT (Rice, Tebonnet) | Preemergence herbicidal rating ORYSAT | 6.0 |
| Cn1c(C(F)(F)F)cc(=O)n(-c2cc(N=C3SCC(=O)N3Cc3ccc(Br)cc3)c(Cl)cc2F)c1=O [Compound 148] | ORYSAT (Rice, Tebonnet) | Preemergence herbicidal rating ORYSAT | 0.0 |
